Attribution: patent US5876694A

Assay: Blocking experiment 1: co-injection of (dl)-vesamicol with radiotracer
Assay type: in vivo, male Wistar rats
Settings: rat, spleen, iv, Group 2: with (dl)vesamicol hydrochloride, 60 min, read-out: Blocking study, spleen
Method: Two separate experiments each utilizing two groups of male Wistar rats (n=3) were performed. Experiment 1. Animals in Group 1 (control) each received an intravenous injection of the radiotracer (4.7 uCi in 100 uL of 50% aq. EtOH). […] At 60 min post-injection, the animals were sacrificed and the tissues were harvested as outlined above. Animals in Group 1 received a single i.v. injection of radiotracer. Animals in Group 2 were administered with a mixture of the radiotracer an […]
MEASURED_PARAMETER: tissue uptake at 1 h (%ID/g)

• O[C@@H]1CCN(Cc2cccc([125I])c2)C[C@H]1N1CCC(c2ccccc2)CC1 (single isomer, unassigned) [(-)-[^125 I]12h] = 0.58

====

Assay: Blocking experiment 1: co-injection of (dl)-vesamicol with radiotracer
Format: in vivo, male Wistar rats
Conditions: rat, lung, iv, Group 1: radiotracer alone, 60 min, read-out: Blocking study, lung
MEASURED_PARAMETER: tissue uptake at 1 h (%ID/g)

- O[C@@H]1CCN(Cc2cccc([125I])c2)C[C@H]1N1CCC(c2ccccc2)CC1 (single isomer, unassigned) [(-)-[^125 I]12h]: 1.96

====

Assay: Blocking experiment 1: co-injection of (dl)-vesamicol with radiotracer
Type: in vivo, male Wistar rats
Settings: rat, heart, iv, Group 1: radiotracer alone, 60 min, read-out: Blocking study, heart
MEASURED_PARAMETER: tissue uptake at 1 h

- O[C@@H]1CCN(Cc2cccc([125I])c2)C[C@H]1N1CCC(c2ccccc2)CC1 (single isomer, unassigned) [(-)-[^125 I]12h]: 0.5 %ID/g

====

Assay: Tissue distribution of radiotracer in rats
Assay type: in vivo, male Wistar rats
Conditions: rat, brain; 60 min, iv; read-out: Tissue distribution, brain
MEASURED_PARAMETER: tissue uptake at 1 h

• O[C@@H]1CCN(Cc2cccc([125I])c2)C[C@H]1N1CCC(c2ccccc2)CC1 (single isomer, unassigned) [(-)-[^125 I]12h] = 0.83 %ID/g

====

Test: Blocking experiment 1: co-injection of (dl)-vesamicol with radiotracer
Type: in vivo, male Wistar rats
Conditions: rat, kidney, iv, Group 1: radiotracer alone, 60 min, read-out: Blocking study, kidney
MEASURED_PARAMETER: tissue uptake at 1 h

* O[C@@H]1CCN(Cc2cccc([125I])c2)C[C@H]1N1CCC(c2ccccc2)CC1 (single isomer, unassigned) [(-)-[^125 I]12h] | 3.11 %ID/g

====

Assay: Tissue distribution of radiotracer in rats
Assay type: in vivo, male Wistar rats
Details: rat, kidney; 60 min, iv; read-out: Tissue distribution, kidney
MEASURED_PARAMETER: tissue uptake at 1 h (%ID/g)

• O[C@@H]1CCN(Cc2cccc([125I])c2)C[C@H]1N1CCC(c2ccccc2)CC1 (single isomer, unassigned) [(-)-[^125 I]12h] = 3.13

====

Assay: Tissue distribution of radiotracer in rats
Type: in vivo, male Wistar rats
Conditions: rat, gonads; 60 min, iv; read-out: Tissue distribution, gonads
MEASURED_PARAMETER: tissue uptake at 1 h (%ID/g)

- O[C@@H]1CCN(Cc2cccc([125I])c2)C[C@H]1N1CCC(c2ccccc2)CC1 (single isomer, unassigned) [(-)-[^125 I]12h]: 0.17

====

Experiment: Tissue distribution of radiotracer in rats
Assay type: in vivo, male Wistar rats
Details: rat, kidney; 30 min, iv; read-out: Tissue distribution, kidney
MEASURED_PARAMETER: tissue uptake at 0.5 h (%ID/g)

- O[C@@H]1CCN(Cc2cccc([125I])c2)C[C@H]1N1CCC(c2ccccc2)CC1 (single isomer, unassigned) [(-)-[^125 I]12h]: 3.53

====

Test: Tissue distribution of radiotracer in rats
Format: in vivo, male Wistar rats
Details: rat, heart; 30 min, iv; read-out: Tissue distribution, heart
MEASURED_PARAMETER: tissue uptake at 0.5 h (%ID/g)

• O[C@@H]1CCN(Cc2cccc([125I])c2)C[C@H]1N1CCC(c2ccccc2)CC1 (single isomer, unassigned) [(-)-[^125 I]12h] = 0.75

====

Assay: Blocking experiment 2: effect of vesamicol pretreatment on radiotracer accumulation
Format: in vivo, male Wistar rats
Conditions: rat, lung, iv, 2 uCi, Group 1: vehicle pretreatment, 30 min postradiotracer; read-out: Accumulation after pretreatment, lung
MEASURED_PARAMETER: tissue uptake at 0.5 h (%ID/g)

- O[C@@H]1CCN(Cc2cccc([125I])c2)C[C@H]1N1CCC(c2ccccc2)CC1 (single isomer, unassigned) [(-)-[^125 I]12h]: 2.36

====

Experiment: Blocking experiment 2: effect of vesamicol pretreatment on radiotracer accumulation
Format: in vivo, male Wistar rats
Settings: rat, heart, iv, 2 uCi, Group 1: vehicle pretreatment, 30 min postradiotracer; read-out: Accumulation after pretreatment, heart
MEASURED_PARAMETER: tissue uptake at 0.5 h

* O[C@@H]1CCN(Cc2cccc([125I])c2)C[C@H]1N1CCC(c2ccccc2)CC1 (single isomer, unassigned) [(-)-[^125 I]12h] | 0.59 %ID/g

====

Assay: Tissue distribution of radiotracer in rats
Type: in vivo, male Wistar rats
Conditions: rat, thyroid; 30 min, iv; read-out: Tissue distribution, thyroid
MEASURED_PARAMETER: tissue uptake at 0.5 h (%ID/g)

- O[C@@H]1CCN(Cc2cccc([125I])c2)C[C@H]1N1CCC(c2ccccc2)CC1 (single isomer, unassigned) [(-)-[^125 I]12h]: 3.15

====

Assay: Tissue distribution of radiotracer in rats
Type: in vivo, male Wistar rats
Conditions: rat, spleen; 30 min, iv; read-out: Tissue distribution, spleen
MEASURED_PARAMETER: tissue uptake at 0.5 h (%ID/g)

• O[C@@H]1CCN(Cc2cccc([125I])c2)C[C@H]1N1CCC(c2ccccc2)CC1 (single isomer, unassigned) [(-)-[^125 I]12h] = 1.24

====

Assay: Tissue distribution of radiotracer in rats
Format: in vivo, male Wistar rats
Settings: rat, gonads; 5 min, iv; read-out: Tissue distribution, gonads
MEASURED_PARAMETER: tissue uptake at 5 min (%ID/g)

- O[C@@H]1CCN(Cc2cccc([125I])c2)C[C@H]1N1CCC(c2ccccc2)CC1 (single isomer, unassigned) [(-)-[^125 I]12h]: 0.19

====

Assay: Blocking experiment 1: co-injection of (dl)-vesamicol with radiotracer
Type: in vivo, male Wistar rats
Settings: rat, liver, iv, Group 2: with (dl)vesamicol hydrochloride, 60 min, read-out: Blocking study, liver
MEASURED_PARAMETER: tissue uptake at 1 h

• O[C@@H]1CCN(Cc2cccc([125I])c2)C[C@H]1N1CCC(c2ccccc2)CC1 (single isomer, unassigned) [(-)-[^125 I]12h] = 2.31 %ID/g

====

Assay: Tissue distribution of radiotracer in rats
Assay type: in vivo, male Wistar rats
Conditions: rat, kidney; 180 min, iv; read-out: Tissue distribution, kidney
MEASURED_PARAMETER: tissue uptake at 3 h (%ID/g)

- O[C@@H]1CCN(Cc2cccc([125I])c2)C[C@H]1N1CCC(c2ccccc2)CC1 (single isomer, unassigned) [(-)-[^125 I]12h]: 3.27

====

Test: Blocking experiment 2: effect of vesamicol pretreatment on radiotracer accumulation
Type: in vivo, male Wistar rats
Settings: rat, thyroid, iv, 2 uCi, Group 1: vehicle pretreatment, 30 min postradiotracer; read-out: Accumulation after pretreatment, thyroid
MEASURED_PARAMETER: tissue uptake at 0.5 h (%ID/g)

• O[C@@H]1CCN(Cc2cccc([125I])c2)C[C@H]1N1CCC(c2ccccc2)CC1 (single isomer, unassigned) [(-)-[^125 I]12h] = 2.62

====

Assay: Blocking experiment 2: effect of vesamicol pretreatment on radiotracer accumulation
Format: in vivo, male Wistar rats
Conditions: rat, gonads, iv, 2 uCi, Group 1: vehicle pretreatment, 30 min postradiotracer; read-out: Accumulation after pretreatment, gonads
MEASURED_PARAMETER: tissue uptake at 0.5 h (%ID/g)

• O[C@@H]1CCN(Cc2cccc([125I])c2)C[C@H]1N1CCC(c2ccccc2)CC1 (single isomer, unassigned) [(-)-[^125 I]12h] = 0.15

====

Experiment: Blocking experiment 1: co-injection of (dl)-vesamicol with radiotracer
Format: in vivo, male Wistar rats
Conditions: rat, blood, iv, Group 2: with (dl)vesamicol hydrochloride, 60 min, read-out: Blocking study, blood
MEASURED_PARAMETER: tissue uptake at 1 h (%ID/g)

* O[C@@H]1CCN(Cc2cccc([125I])c2)C[C@H]1N1CCC(c2ccccc2)CC1 (single isomer, unassigned) [(-)-[^125 I]12h] | 0.09

====

Test: Tissue distribution of radiotracer in rats
Format: in vivo, male Wistar rats
Details: rat, thyroid; 5 min, iv; read-out: Tissue distribution, thyroid
MEASURED_PARAMETER: tissue uptake at 5 min (%ID/g)

* O[C@@H]1CCN(Cc2cccc([125I])c2)C[C@H]1N1CCC(c2ccccc2)CC1 (single isomer, unassigned) [(-)-[^125 I]12h] | 2.67
